Data origin: patent US5011838A

System: mortality induced by histamine
EXPERIMENT_SUMMARY: Effect on the mortality induced by histamine
Format: in vivo, male albino guinea pigs (Dunkin-Hartley)
TEST_SETTINGS: Cavia porcellus, po, 1 h; p.o., 60 min before 1.25 mg/kg i.v. histamine dihydrochloride; guinea pig; read-out: Mortality induced by hystamine ED50 p.o.
Description: The method described by Romer D. et al. (Med. Welt. 17,791, 1966) was followed and the tests were carried out on male albino guinea pigs (Dunkin-Hartley), weighing 350 to 450 g which were kept in cages with a grid floor, on an empty stomach for 24 hours with water ad libitum. […]
Assign ED50 to each entry below.
Answer format: numeric, mg/kg implied, no suffix.

Query: Entry CCOCCn1c(CCCN(C)C)nc2cccnc21 [Example 1] has what ED50?
Response: 0.03

Query: Entry CCOCCn1c(CCN(C)C)nc2cccnc21 [Example 2] has what ED50?
Response: 0.025

Query: Entry CCOCCn1c(CCCN2CCOCC2)nc2cccnc21.O=C(O)/C=C/C(=O)O.O=C(O)/C=C/C(=O)O [Example 9] has what ED50?
Response: 0.003

Query: Entry CC(C)(C)c1ccc(C(O)CCCN2CCC(C(O)(c3ccccc3)c3ccccc3)CC2)cc1 (stereo not shown) [Terfenadine, reference compound] has what ED50?
Response: 0.436
